Test system: HLA-DR5w11 (DRB1*1101) (human)
Endpoint name: binding affinity ratio (IC50 of standard peptide / IC50 of test peptide)
Give bare numbers.

// below: answered binders
[[record]]
binder = "CGVWDEWSPCSVTCG (modifications not checked)"
endpoint_value = -0.0002

[[record]]
binder = "TVLLGGVGLVLYNTE (modifications not checked)"
endpoint_value = -0.0002

[[record]]
binder = "AVPLAMKLIQQLNLN (modifications not checked)"
endpoint_value = 0.0002

[[record]]
binder = "AGGIAGGLALLACAG (modifications not checked)"
endpoint_value = -0.0002

[[record]]
binder = "AGGLALLACAGLAYK (modifications not checked)"
endpoint_value = -0.0002


Count: 2. Required value per item: binding affinity ratio (IC50 of standard peptide / IC50 of test peptide).
1. VVILTDGIPDSIQDS (modifications not checked)
2. ANQLVVILTDGIPDS (modifications not checked)

1: -0.0004; 2: -0.0002
